Each item that follows carries a reported melting point.

See these solved cases before continuing.
Cc1nc(CNC(=O)c2ccnc(N3CCN(Cc4ccc(F)cc4)C3=O)c2)no1 [Example 26.7]	163 to 165 °C
O=C(NCc1ccc(F)c(F)c1)c1ccnc(N2CCN(Cc3ccc(F)cc3)C2=O)c1 [Example 15.14]	182 to 183 °C
O=C(NCC1CC1)c1ccnc(N2CCN(Cc3ccc(F)cc3)C2=O)c1 [Example 15.5]	135 to 137 °C
O=C(NCc1ccccc1)c1ccnc(N2CCC(c3ccccc3)CC2=O)c1 (centres unmarked) [Example 18]	55 to 60 °C

Here is another compound to look at.
Sample Cc1nnc(CNC(=O)c2ccnc(N3CCN(Cc4ccc(F)cc4)C3=O)c2)o1 [Example 26.1] — what was its melting point?
136 to 138 °C

====

attribute.measured: melting point

See these solved cases before continuing.
O=C(Nc1cc(-c2nc(-c3ccccc3)c[nH]2)ccn1)c1ccccc1	265 to 267 °C
O=C(NCc1ccccc1)c1cc(O)nc(NC(=O)c2ccccc2)c1	257 °C (dec.)
O=C(NCc1cccnc1)c1ccnc(N2CCN(Cc3ccc(OC(F)(F)F)cc3)C2=O)c1	185 to 187 °C
O=C(NCc1ccccc1)c1ccnc(N2CCN(Cc3ccc(F)cc3)C2=O)c1	167 to 169 °C
Cc1cc(CNC(=O)c2ccnc(N3CCN(Cc4ccc(F)c(F)c4)C3=O)c2)no1	153 to 155 °C

Sample O=C(NCc1ccncc1)c1ccnc(N2CCN(Cc3ccc(F)cc3)C2=O)c1 — what was its melting point?
205 to 207 °C

Again, but for O=C(NCc1cncs1)c1ccnc(-n2cnn(Cc3ccc(F)cc3)c2=O)c1
181 to 183 °C

Again, but for O=C(NCc1ccccc1)c1ccnc(-n2ccc(OCc3ccccc3)cc2=O)c1
158 to 161 °C

====

Each item that follows carries a reported melting point.

See these solved cases before continuing.
NC(=O)c1ccnc(N2CCN(Cc3ccc(OC(F)(F)F)cc3)C2=O)c1	175 to 176 °C
O=C(NC[C@H](O)c1ccccc1)c1ccnc(N2CCN(Cc3ccc(F)cc3)C2=O)c1	97 to 99 °C
O=C(NCc1ccccc1)c1ccnc(-n2ccc(-c3ccccc3)cc2=O)c1	162 to 163 °C
O=C(NCc1cncs1)c1ccnc(N2CCN(Cc3ccc(F)c(F)c3)C2=O)c1	111 to 113 °C
O=C(NCc1csc(C(F)(F)F)n1)c1ccnc(N2CCN(Cc3ccc(F)cc3)C2=O)c1	66 to 68 °C

Sample CC(C)Cc1c[nH]c(-c2ccnc(NC(=O)c3ccccc3)c2)n1 — what was its melting point?
103 to 105 °C

Again, but for O=C(NCc1ccccc1)c1ccnc(N2CCN(Cc3ccncc3)C2=O)c1
154 to 156 °C

Again, but for O=C(NCc1nnco1)c1ccnc(N2CCN(Cc3ccc(F)cc3)C2=O)c1
211 to 213 °C

FYI, the data here is from patent US9187426B2.
